Experiment: folding stability dG unfold (combined trypsin and chymotrypsin); higher = more stable
Short version: folding stability dG unfold at least 2 kcal/mol is y, less is n.

Observe how each entry below is paired with its result.
{"columns": ["residue.string", "class"],
 "data": [
  ["SAGGSAGGSAGGSSTSLIGNSTVTVDPVYVTDTGERGFVISADVPPSVSEAVVEAHVASSAGGSAGGSAGGS [r10_531_JUSTAS]", "n"],
  ["SAGGSAGGNTIMIPLPPNMPLDEVAKELMDAFPDYPIKDVEYERYGDRPMVTVRFPDGWKITIWSAGGSAGG [r6_492_TrROS]", "n"]
]}

Now consider a different sequence.
Input line: # check: folding stability dG unfold of SAGGSAGGKKKIKPPEVTIKIKNKDGSVFEAKITKVEYDEETKKLYLEIEIEVNGKKYKLTIELSAGGSAGG [r6_962_TrROS_Hall] is greater than or equal to 2 kcal/mol
Output line: y
